System: U2OS
ASSAY_EXPLANATION: Incucyte cell viability with U2OS; note: unitless GR value; below 1 slowed growth and below 0 cell loss
Assay type: toxicity, cell-based
SETUP_CONDITIONS: human, 12 h, 10 µM, compound concentration 10 uM, replicate number 1
Below is a list of entries, each paired with its recorded Growth Rate value.
Answer field: number only, no words.

Guide cases for Growth Rate, answers given:
compound=Cn1cnc(Cn2ccc3ccc(CNCc4[nH]c5ccccc5c4[C@@H]4NC(=O)c5ccc(O)cc54)cc32)c1 target_entity=U2OS observed=0.8
compound="CN[C@@H](C)C/C=C/c1cncc(OC(C)C)c1 [ISPRONICLINE]" target_entity=U2OS observed=0.82

[Q] Query Growth Rate on U2OS for CCN1C(=O)N(c2c(F)c(OC)cc(OC)c2F)Cc2cnc3[nH]c(CN4CCOCC4)cc3c21 [PEMIGATINIB]
[A] -0.36

[Q] Query Growth Rate on U2OS for Cc1n[nH]c2ncc(C(=O)N3CCC[C@H]3c3ccc(Cl)cc3)cc12
[A] 0.67

[Q] Query Growth Rate on U2OS for OCC1OC(n2cnc3cc(Cl)c(Cl)cc32)C(O)C1O (stereo not drawn)
[A] 0.53

[Q] Query Growth Rate on U2OS for Cc1ccc2c(NS(=O)(=O)c3ccccc3Cl)cccc2c1Oc1ncccc1-c1ccnc(N[C@H]2CCCNC2)n1.Cl
[A] 0.68

[Q] Query Growth Rate on U2OS for CCC(=O)O[C@@H](OP(=O)(CCCCc1ccccc1)CC(=O)N1C[C@H](C2CCCCC2)C[C@H]1C(=O)[O-])C(C)C.[Na+] (stereo partly drawn)
[A] 0.78

[Q] Query Growth Rate on U2OS for CC(C)CC(=O)Nc1cncc(-c2ccc3[nH]nc(-c4nc5c(-c6cccc(F)c6)cncc5[nH]4)c3c2)c1 [LORECIVIVINT]
[A] -0.71
